protocol details: Influencing factor stability study on crystal forms (light, high temperature, high humidity, 30 days)
Assay type: physicochemical
cond: 92.5% RH, 30 days
value type: Color and state

molecule="C=CC(=O)N1CCN2C(=O)c3cc(F)c(-c4ccc(F)c5sc(N)c(C#N)c45)c4c(Cl)nn(c34)CC[C@H]2C1 [crystal form C]" readout_value="Off-white solid"
molecule="C=CC(=O)N1CCN2C(=O)c3cc(F)c(-c4ccc(F)c5sc(N)c(C#N)c45)c4c(Cl)nn(c34)CC[C@H]2C1 [crystal form M]" readout_value="Off-white solid"
molecule="C=CC(=O)N1CCN2C(=O)c3cc(F)c(-c4ccc(F)c5sc(N)c(C#N)c45)c4c(Cl)nn(c34)CC[C@H]2C1 [crystal form L]" readout_value="Off-white solid"
